test system: Trypanosoma brucei; experiment: DNDI: Inhibition of Human African Trypanosomiasis, SBRI 427, in vitro at 2 ug.mL-1; assay type: functional
Out of some 4,400 compounds screened, about 390 (8.9%) showed an effect of 50% or more. This excerpt belongs to a sample that is enriched for strong results.
RESULT TYPE: % inhibition (%)

| COMPOUND | RESULT TYPE | ENDPOINT VALUE |
| --- | --- | --- |
| Cc1ccc(/C(=N/O)NCC(C)(C)C)c(OCc2cccc(F)c2)n1 | % inhibition | 96 |
| Cc1ccccc1-c1nc(CN2CCN(c3cccc(C(F)(F)F)c3)CC2)co1 | % inhibition | 14 |
| Cc1cc(C)n(/C(=N\O)c2ccc(Oc3ccc4ccccc4c3)nc2)n1 | % inhibition | 12 |
| Cc1cccc(N2CCN(Cc3coc(-c4ccccc4Cl)n3)CC2C)c1 (stereo unspecified) | % inhibition | -10 |
| Cc1cccc(Oc2nc(C)ccc2/C(=N/O)NCc2ccccc2)c1 | % inhibition | 6 |
| Cc1ccc(C(C)C)c(Oc2cc(/C(=N/O)N3C(C)CCC3C)ccn2)c1 (stereo unspecified) | % inhibition | 8 |
| Cc1ccc(/C(=N/O)NCc2cc(F)cc(F)c2)c(OCc2cccc(F)c2)n1 | % inhibition | -12 |
| CCC(C)(C)N/C(=N\O)c1ccc(C)nc1Oc1cccc(C)c1 | % inhibition | 19 |
| Cc1nccn1/C(=N\O)c1cccnc1OCC(C)C | % inhibition | -13 |
| CC(C)(C)COc1ncccc1/C(=N/O)NCCN1CCOCC1 | % inhibition | 6 |
| Cc1ccc(-c2nc(CNCC(C)(C)CN(C)C)co2)cc1 | % inhibition | 10 |
